Data credit: patent US20220056104A1

- TARGET UNDER TEST: T1, Recombinant DR3-Fc (R&D Systems, cat. #943-D3) (UniProt Q93038 25-199, limits assumed)
- T1 construct: dimeric MW~92 kDa; also called DR3 receptor; Fc-DR3; not shown: Fc part of the bought fusion
- T1 sequence (looked up): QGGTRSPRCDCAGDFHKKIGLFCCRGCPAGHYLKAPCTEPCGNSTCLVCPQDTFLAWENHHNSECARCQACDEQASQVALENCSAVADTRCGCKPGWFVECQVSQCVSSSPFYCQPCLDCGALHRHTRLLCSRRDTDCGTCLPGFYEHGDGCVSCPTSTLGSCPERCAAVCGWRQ
- ASSAY INFO: ELISA, DR3-Fc immobilized
Labelling: EC50 reported below 100 nM becomes class 1; at or above becomes class 0.

query: In plain terms, does TL1W119 (His-TEV-TL1A S206F) (ligand, also called TL1W119 (S206F)) HHHHHHENLYFQGLKGQEFAPSHQQVYAPLRADGDKPRAHLTVVRQTPTQHFKNQFPALHWEHELGLAFTKNRMNYTNKFLLIPESGDYFIYSQVTFRGMTSECSEIRQAGRPNKPDSITVVITKVTDSYPEPTQLLMGTKSVCEVGFNWFQPIYLGAMFSLQEGDKLMVNVSDISLVDYTKEDKTFFGAFLL come in under 100 nM for EC50?
result: class 1

query: Is 100 nM strictly greater than the binder's reported EC50? binder: TL1W107 (His-TEV-TL1A D186Y) (ligand, also called TL1W107 (D186Y)) HHHHHHENLYFQGLKGQEFAPSHQQVYAPLRADGDKPRAHLTVVRQTPTQHFKNQFPALHWEHELGLAFTKNRMNYTNKFLLIPESGDYFIYSQVTFRGMTSECSEIRQAGRPNKPDSITVVITKVTYSYPEPTQLLMGTKSVCEVGSNWFQPIYLGAMFSLQEGDKLMVNVSDISLVDYTKEDKTFFGAFLL
result: class 1

query: Is it true that EC50 reported for TL1W85 (His-TEV-TL1A G124S) (ligand, also called TL1W85 (G124S)) HHHHHHENLYFQGLKGQEFAPSHQQVYAPLRADGDKPRAHLTVVRQTPTQHFKNQFPALHWEHELSLAFTKNRMNYTNKFLLIPESGDYFIYSQVTFRGMTSECSEIRQAGRPNKPDSITVVITKVTDSYPEPTQLLMGTKSVCEVGSNWFQPIYLGAMFSLQEGDKLMVNVSDISLVDYTKEDKTFFGAFLL is less than 100 nM?
result: class 0

query: For TL1W31 (GD: Single chain MMB in CBIS; His-TEV-hTL1A 72-251 R103Q) (ligand, also called TL1W31 (R103Q)) HHHHHHENLYFQGLKGQEFAPSHQQVYAPLRADGDKPRAHLTVVQQTPTQHFKNQFPALHWEHELGLAFTKNRMNYTNKFLLIPESGDYFIYSQVTFRGMTSECSEIRQAGRPNKPDSITVVITKVTDSYPEPTQLLMGTKSVCEVGSNWFQPIYLGAMFSLQEGDKLMVNVSDISLVDYTKEDKTFFGAFLL , is the recorded EC50 below the cut-off of 100 nM?
result: class 1

query: Report whether reported EC50 is lower than 100 nM (strictly) for TL1W79 (His-TEV-TL1A R103E) (ligand, also called TL1W79 (R103E)) HHHHHHENLYFQGLKGQEFAPSHQQVYAPLRADGDKPRAHLTVVEQTPTQHFKNQFPALHWEHELGLAFTKNRMNYTNKFLLIPESGDYFIYSQVTFRGMTSECSEIRQAGRPNKPDSITVVITKVTDSYPEPTQLLMGTKSVCEVGSNWFQPIYLGAMFSLQEGDKLMVNVSDISLVDYTKEDKTFFGAFLL
result: class 0

query: Please state whether EC50 is below 100 nM for TL1W136 (His-TEV-TL1A K240F) (ligand, also called TL1W136 (K240F)) HHHHHHENLYFQGLKGQEFAPSHQQVYAPLRADGDKPRAHLTVVRQTPTQHFKNQFPALHWEHELGLAFTKNRMNYTNKFLLIPESGDYFIYSQVTFRGMTSECSEIRQAGRPNKPDSITVVITKVTDSYPEPTQLLMGTKSVCEVGSNWFQPIYLGAMFSLQEGDKLMVNVSDISLVDYTFEDKTFFGAFLL
result: class 0

query: # check: EC50 < 100 nM for TL1W132 (His-TEV-TL1A T239A) (ligand, also called TL1W132 (T239A)) HHHHHHENLYFQGLKGQEFAPSHQQVYAPLRADGDKPRAHLTVVRQTPTQHFKNQFPALHWEHELGLAFTKNRMNYTNKFLLIPESGDYFIYSQVTFRGMTSECSEIRQAGRPNKPDSITVVITKVTDSYPEPTQLLMGTKSVCEVGSNWFQPIYLGAMFSLQEGDKLMVNVSDISLVDYAKEDKTFFGAFLL
result: class 0

query: For TL1W131 (His-TEV-TL1A Y238E) (ligand, also called TL1W131 (Y238E)) HHHHHHENLYFQGLKGQEFAPSHQQVYAPLRADGDKPRAHLTVVRQTPTQHFKNQFPALHWEHELGLAFTKNRMNYTNKFLLIPESGDYFIYSQVTFRGMTSECSEIRQAGRPNKPDSITVVITKVTDSYPEPTQLLMGTKSVCEVGSNWFQPIYLGAMFSLQEGDKLMVNVSDISLVDETKEDKTFFGAFLL , is the recorded EC50 below the cut-off of 100 nM?
result: class 0

query: Could you please tell me whether EC50 recorded for TL1W122 (His-TEV-TL1A N207F) (ligand, also called TL1W122 (N207F)) HHHHHHENLYFQGLKGQEFAPSHQQVYAPLRADGDKPRAHLTVVRQTPTQHFKNQFPALHWEHELGLAFTKNRMNYTNKFLLIPESGDYFIYSQVTFRGMTSECSEIRQAGRPNKPDSITVVITKVTDSYPEPTQLLMGTKSVCEVGSFWFQPIYLGAMFSLQEGDKLMVNVSDISLVDYTKEDKTFFGAFLL is less than 100 nM?
result: class 1

query: Does the reported EC50 of the following binder sit strictly below 100 nM? TL1W129 (His-TEV-TL1A Y238K) (ligand, also called TL1W129 (Y238K)) HHHHHHENLYFQGLKGQEFAPSHQQVYAPLRADGDKPRAHLTVVRQTPTQHFKNQFPALHWEHELGLAFTKNRMNYTNKFLLIPESGDYFIYSQVTFRGMTSECSEIRQAGRPNKPDSITVVITKVTDSYPEPTQLLMGTKSVCEVGSNWFQPIYLGAMFSLQEGDKLMVNVSDISLVDKTKEDKTFFGAFLL
result: class 0
